Protocol Summary: in vitro
Measurement Context: human, hela cells, % viability
Property Name: viability at 28.5 h, 10 µM
Answers without a unit are incomplete; give the number and then its unit.

# Compound, viability at 28.5 h, 10 µM
data = [
    ("O=C(NCc1cccs1)OCc1ccccc1", "96.6%"),
    ("O=C(CSc1nnc(Cc2cccc3ccccc23)n1-c1ccccc1)NC1CCCCC1", "102%"),
    ("COc1ccc2c(C)c(C(=O)NC(C)Cc3ccccn3)oc2c1 (stereo not drawn)", "89.1%"),
]

Query: Look up viability at 28.5 h, 10 µM for this compound: CN1CCN(c2nc(NS(=O)(=O)c3cccc(C(F)(F)F)c3)cc3ccccc23)CC1 [CBK200013C]
Reply: 98.6%

Query: Fill in the blank: the reported viability at 28.5 h, 10 µM of CC(=O)NCCn1cc2c(n1)[C@H]1CN(C(=O)C3CCC3)C[C@H]1CC2 is ____.
Reply: 107%

Query: Return reported viability at 28.5 h, 10 µM; argument: O=C(COc1ccc2oc3ccccc3c2c1)c1ccccc1
Reply: 99.5%

Query: # lookup: viability at 28.5 h, 10 µM of O=[N+]([O-])c1ccc(CN2CCC(Oc3cncc(OCCN4CCOCC4)n3)C2)cc1 (stereo not drawn)
Reply: 95.2%

Query: What value of viability at 28.5 h, 10 µM has been recorded for this entry: CC1(C)CC(=O)C2=C(C1)N=C(Nc1nc3ccccc3o1)NC2c1ccccn1 (stereo not drawn)
Reply: 88.8%

Query: Query (compound): CCCc1nc(CN2CCNC(=O)C2c2ccccc2C(F)(F)F)no1 (stereo not drawn) ; field requested: viability at 28.5 h, 10 µM
Reply: 93.2%

Query: Would you kindly share the measured viability at 28.5 h, 10 µM for O=C(CN1CCCCC1)Nc1sc2c(c1C(=O)Nc1ccccc1)CCCC2 ?
Reply: 104%

Query: // viability at 28.5 h, 10 µM lookup, key: O=C(O)c1cccc(NC(=S)NC(=O)c2ccc(-c3ccc(Br)cc3)o2)c1
Reply: 95.6%
